pIC50: −log10 of the molar value.
// merged dataset of pIC50 values, system = Sodium-dependent dopamine transporter (Homo sapiens, UniProt Q01959), multiple refs
Sequence (Q01959 whole entry): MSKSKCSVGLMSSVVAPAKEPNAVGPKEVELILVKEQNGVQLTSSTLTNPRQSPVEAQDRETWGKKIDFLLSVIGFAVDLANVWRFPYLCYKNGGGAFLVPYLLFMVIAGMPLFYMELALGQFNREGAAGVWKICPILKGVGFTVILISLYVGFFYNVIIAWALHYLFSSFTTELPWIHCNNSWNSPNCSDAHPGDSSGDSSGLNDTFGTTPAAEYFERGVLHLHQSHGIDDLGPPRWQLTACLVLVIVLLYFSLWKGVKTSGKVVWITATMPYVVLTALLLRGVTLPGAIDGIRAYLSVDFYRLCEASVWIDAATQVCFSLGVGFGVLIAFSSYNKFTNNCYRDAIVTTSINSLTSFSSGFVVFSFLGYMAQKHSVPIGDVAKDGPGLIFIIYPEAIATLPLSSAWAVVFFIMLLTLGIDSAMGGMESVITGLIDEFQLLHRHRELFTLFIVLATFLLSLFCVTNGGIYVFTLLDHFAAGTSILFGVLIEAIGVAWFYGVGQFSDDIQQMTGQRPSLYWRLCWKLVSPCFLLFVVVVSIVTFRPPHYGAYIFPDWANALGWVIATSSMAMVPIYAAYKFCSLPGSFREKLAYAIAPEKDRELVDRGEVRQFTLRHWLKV
recorded.metric: pIC50

{"molecule": "CCN(CC)C(=O)C1(c2ccccc2)CC1(C)CN (racemic)", "recorded.metric": "pIC50", "result": "< 5.00"}
{"molecule": "C#CCN(C(=O)[C@@]1(c2ccc3c(c2)OCCO3)C[C@H]1CN)C1CC1", "recorded.metric": "pIC50", "result": "< 5.00"}
{"molecule": "COc1ccc(C2=NNC(=O)[C@@H]3CC=CC[C@H]23)cc1OC (relative stereo)", "recorded.metric": "pIC50", "result": "< 4.00"}
{"molecule": "Cc1ccc(Nc2ccccc2CN(C)C)c(N)c1", "recorded.metric": "pIC50", "result": "< 7.00"}
{"molecule": "NCC1CC1(C(=O)N1CCOCC1)c1ccccc1 (racemic)", "recorded.metric": "pIC50", "result": 5.13}
{"molecule": "CCOC(=O)CCc1ccc(OC[C@H](O)CNC(C)(C)Cc2ccc3ccccc3c2)c(C#N)c1.Cl", "recorded.metric": "pIC50", "result": 7.23}
{"molecule": "C#CCN(CC#C)C(=O)[C@@]1(c2ccc3c(c2)OCCO3)C[C@H]1CN", "recorded.metric": "pIC50", "result": "< 5.00"}
{"molecule": "CN1CCN(C[C@H](c2csc(Cl)c2)C2(O)CCCCC2)CC1", "recorded.metric": "pIC50", "result": 6.67}
{"molecule": "C=CCN(CCC)C(=O)[C@@]1(c2ccc3c(c2)CCO3)C[C@H]1CN", "recorded.metric": "pIC50", "result": "< 5.00"}
{"molecule": "CN1CCN(C[C@@H](c2csc(Cl)c2)C2(O)CCCCC2)CC1", "recorded.metric": "pIC50", "result": "< 5.22"}

* * *

pIC50: −log10 of the molar value.
// merged dataset of pIC50 values, system = UniProtKB Q01959, multiple refs

{"molecule": "CN(C)CC1CC1c1cccc2ccccc12 (single isomer, unassigned; (+))", "measurement.qualifier": "=", "pIC50": 4.48}
{"molecule": "COc1cc(OC(C)C)cc(S(=O)(=O)c2ccc3c(c2)O[C@H]2CNCC[C@@H]32)c1.Cl (single isomer, unassigned; enantiomer 1)", "measurement.qualifier": "=", "pIC50": 5.20}
{"molecule": "C=CCN(CC)C(=O)C1(c2ccccc2)CC1CN (racemic)", "measurement.qualifier": "<", "pIC50": 5.00}
{"molecule": "CN(C)CC1CC1c1ccc2ccc(C#N)cc2c1 (racemic)", "measurement.qualifier": "=", "pIC50": 6.59}
{"molecule": "NCC1CC1(C(=O)N1CCCCC1)c1ccccc1 (racemic)", "measurement.qualifier": "=", "pIC50": 5.34}

* * *

pIC50: −log10 of the molar value.
// merged dataset of pIC50 values, system = Sodium-dependent dopamine transporter (Homo sapiens), multiple refs

{"molecule": "O=C1NCC(c2ccccc2Cl)C1c1ccc(Cl)c(Cl)c1 (stereo unspecified)", "pIC50": 5.76}
{"molecule": "CCN(C(=O)C1(c2ccccc2)CC1CN)c1ccccc1 (racemic)", "pIC50": "< 5.00"}
{"molecule": "Cc1ccc(Oc2ccccc2CN(C)C)c(N)c1", "pIC50": "< 7.00"}
{"molecule": "O=C1NCC(c2cccc(Cl)c2)C1c1ccccc1Cl (stereo unspecified)", "pIC50": 7.76}
{"molecule": "Nc1nc(Cl)ncc1-c1c[nH]c2cccc(O)c12", "pIC50": "< 5.00"}
{"molecule": "C#CCN(CC#C)C(=O)[C@@]1(c2cccs2)C[C@H]1CN", "pIC50": "< 5.00"}
{"molecule": "CN(C)CC1CC1c1ccc2ccccc2c1 (single isomer, unassigned; (+))", "pIC50": 5.62}
{"molecule": "CCN(c1ccc(C)cc1N)c1ccccc1CN(C)C", "pIC50": "< 7.00"}
{"molecule": "NCC(=O)NCC1CC1(C(=O)C1NCCc2ccccc21)c1ccccc1 (racemic)", "pIC50": "< 5.00"}
{"molecule": "CCN(CC)C(=O)[C@@]1(c2ccc3c(c2)OCCO3)C[C@H]1CN", "pIC50": "< 5.00"}
{"molecule": "CCN(CC)C(=O)[C@@]1(c2ccc3occc3c2)C[C@H]1CN", "pIC50": "< 5.00"}
